# EXPERIMENT: Stability in human liver microsome
# CONDITION: with coenzyme, 2 μM, 37° C., 30 minutes
MEASURED QUANTITY: Percentage of the compound remaining in human liver microsome (%)

Example entries begin here.
Fill in the blank: the reported Percentage of the compound remaining in human liver microsome of `CN1CCN(C(=O)OCOc2ccc([N+](=O)[O-])c3cccnc23)CC1` is ____.
109.46

Record request: Percentage of the compound remaining in human liver microsome value, item `CC(C)C(=O)N1CCC[C@H]1C(=O)OCOc1ccc([N+](=O)[O-])c2cccnc12`
26.92

Find the recorded Percentage of the compound remaining in human liver microsome belonging to CC(OC(=O)C(C)C)Oc1ccc([N+](=O)[O-])c2cccnc12 (stereo not shown) and report it.
0.03

P: CCC(=O)OC(C)Oc1ccc([N+](=O)[O-])c2cccnc12 (stereo not shown)
Q: CCC(=O)OCOc1ccc([N+](=O)[O-])c2cccnc12
R: CC(C)(C)OC(=O)N[C@@H](Cc1ccccc1)C(=O)OCOc1ccc([N+](=O)[O-])c2cccnc12
S: CN(CC(O)CO)C(=O)OCOc1ccc([N+](=O)[O-])c2cccnc12 (stereo not shown)
Thanks in advance: please rank these 4 entries by Percentage of the compound remaining in human liver microsome, highest to lowest. Order the labels as requested and give them as your answer.
S, Q, P, R
(S: 102.24%, Q: 0.27%, P: 0.08%, R: 0.01%)

A: O=C(OCOc1ccc([N+](=O)[O-])c2cccnc12)N1CCOCC1
B: CC(=O)OCOc1ccc([N+](=O)[O-])c2cccnc12 [Compound 1, (5-nitroquinolin-8-yloxy)methyl acetate]
C: CCC(NC(=O)OCOc1ccc([N+](=O)[O-])c2cccnc12)C(=O)OC (stereo not shown)
D: CC(=O)OC(C)Oc1ccc([N+](=O)[O-])c2cccnc12 (stereo not shown) [Compound 47, 1-(5-nitroquinolin-8-yloxy)ethyl acetate]
E: CCCOC(=O)N1CCC[C@H]1C(=O)OCOc1ccc([N+](=O)[O-])c2cccnc12
// smallest Percentage of the compound remaining in human liver microsome at index 0, largest at the end Reply format: the labels, ordered as requested.
D, B, E, C, A
(D: 0.03%, B: 0.24%, E: 2.65%, C: 31.49%, A: 91.44%)

###

# EXPERIMENT: Stability in human plasma
# CONDITION: 37° C., 60 minutes
MEASURED QUANTITY: Percentage of the compound remaining in plasma (%)

Dear colleague, I am looking for the recorded Percentage of the compound remaining in plasma of the following compound: CCC(C)C(C(=O)OC)N(C)C(=O)OCOc1ccc([N+](=O)[O-])c2cccnc12 (centres unmarked)
103.6

Fill in: Percentage of the compound remaining in plasma of `COC(=O)CN(C)C(=O)Oc1ccc([N+](=O)[O-])c2cccnc12` is ___
76.2

Quick check: Percentage of the compound remaining in plasma of `C[C@@H]1CN(C(=O)OCOc2ccc([N+](=O)[O-])c3cccnc23)C[C@H](C)O1` ?
103.1

A: CCC(CC)C(=O)OCOc1ccc([N+](=O)[O-])c2cccnc12
B: CCC(C)C(NC(=O)OCOc1ccc([N+](=O)[O-])c2cccnc12)C(=O)OC (centres unmarked)
Of the two listed items, which has the higher Percentage of the compound remaining in plasma? First: A Second: B Give the chosen item's label as your response.
B

Source of measurements: patent US12152048B2
